MEASURED ON: PPARα (Homo sapiens, UniProt Q07869)
Sequence (Q07869 239-466 limits assumed): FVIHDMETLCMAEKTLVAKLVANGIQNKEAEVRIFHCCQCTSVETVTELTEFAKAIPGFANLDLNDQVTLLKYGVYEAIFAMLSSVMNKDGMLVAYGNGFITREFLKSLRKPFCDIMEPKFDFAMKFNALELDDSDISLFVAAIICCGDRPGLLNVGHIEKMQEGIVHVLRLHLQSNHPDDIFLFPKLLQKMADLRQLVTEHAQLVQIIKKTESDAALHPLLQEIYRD
ASSAY NOTES: GAL4 hybrid reporter gene method, PPARα agonistic activity
CONDITION DETAILS: Cos-7 cells, Gal4-PPARα (LBD); GW7647 10 nM = 100%; 16 h
QUANTITY: EC50 (nM)

1. Cc1cc(CCCN2CC(=O)N(c3ccc(C(F)(F)F)cc3)C2=O)cc(C)c1OC(C)(C)C(=O)O | 38
2. Cc1cc(CCN2C(=O)CN(c3ccc(C(F)(F)F)cc3)C2=O)cc(C)c1OC(C)(C)C(=O)O | 17.9
3. Cc1cc(CN2C(=O)CN(c3ccc(C=O)cc3)C2=O)cc(C)c1OC(C)(C)C(=O)O | 402
4. CSc1ccc(C(=O)/C=C/c2cc(C)c(OC(C)(C)C(=O)O)c(C)c2)cc1 [GFT505, Elafibranor, reference compound] | 820
5. CC(C)(Oc1ccc(CN2C(=O)CN(c3ccc(C(F)(F)F)cc3)C2=O)cc1Cl)C(=O)O | 89.9

[1] Cc1cc(CCN2CC(=O)N(c3ccc(C(F)(F)F)cc3)C2=O)cc(C)c1OC(C)(C)C(=O)O
[2] Cc1cc(CN2C(=O)CN(c3ccc(C(F)(F)F)cc3)C2=O)cc(C)c1OC(C)C(=O)O (stereo not drawn)
Exercise: Please let me know which one, 1 or 2 , has a lower measured EC50 value. Write the label of whichever entry you select.
Key: 2

[I] Cc1cc(CN2C(=O)CN(c3ccccc3)C2=O)cc(C)c1OC(C)(C)C(=O)O
[II] Cc1cc(CCCN2C(=O)CN(c3ccc(C(F)(F)F)cc3)C2=O)cc(C)c1OC(C)(C)C(=O)O
[III] Cc1cc(CN2C(=O)CN(c3ccc(Cl)cc3)C2=O)cc(C)c1OC(C)(C)C(=O)O
[IV] Cc1cc(CN2C(=O)CN(c3ccc(C(F)(F)F)cc3)C2=O)ccc1OCC(=O)O
[V] CC(C)(Oc1c(F)cc(CN2C(=O)CN(c3ccc(C(F)(F)F)cc3)C2=O)cc1F)C(=O)O
Exercise: Could you please sort these 5 entries by EC50 from high to low? // format: requested-order list of labels
Key: IV, I, II, V, III
(IV: 994 nM, I: 166 nM, II: 67 nM, V: 42.9 nM, III: 17 nM)

[P] Cc1cc(CN2C(=O)CN(c3ccc(F)c(Cl)c3)C2=O)cc(C)c1OC(C)(C)C(=O)O
[Q] Cc1cc(N2CC(=O)N(Cc3cc(C)c(OC(C)(C)C(=O)O)c(C)c3)C2=O)ccc1C(F)(F)F
Exercise: Recorded EC50 values differ for P and Q ; which one is higher? Write the label of whichever entry you select.
Key: P
(P: 21.9 nM, Q: 1.4 nM)

* * *

MEASURED ON: PPARγ (Homo sapiens)
Construct: expressed in transfected cells; host or cells: COS-7
ASSAY NOTES: GAL4 hybrid reporter gene method, PPARγ agonistic activity
Format: cell-based
CONDITION DETAILS: Cos-7 cells, Gal4-PPARγ (LBD); Rosiglitazone 1 μM = 100%; 16 h
QUANTITY: EC50 (µM)

Examples with answers:
1. CSc1ccc(C(=O)/C=C/c2cc(C)c(OC(C)(C)C(=O)O)c(C)c2)cc1 [GFT505, Elafibranor, reference compound] | 1.84
2. Cc1cc(CN2C(=O)CN(Cc3ccc(C(F)(F)F)cc3)C2=O)cc(C)c1OC(C)(C)C(=O)O [Compound 93] | 1.49
3. Cc1cc(CN2C(=O)CN(c3ccc(C(F)(F)F)cc3)C2=O)cc(C)c1OC(C)(C)C(=O)O [Compound 1] | 1.66

[A] COc1ccc(N2CC(=O)N(Cc3cc(C)c(OC(C)(C)C(=O)O)c(C)c3)C2=O)cc1 [Compound 39]
[B] Cc1cc(CCCN2C(=O)CN(c3ccc(C(F)(F)F)cc3)C2=O)cc(C)c1OC(C)(C)C(=O)O [Compound 89]
Exercise: Recorded EC50 values differ for A and B ; which one is higher? Write the label of whichever entry you select.
Key: A

* * *

ASSAY NOTES: Pharmacokinetic evaluation in rats
Assay type: in vivo, SD rats
CONDITION DETAILS: male, SD, rat, plasma, 10 mg/kg, oral administration, 10 mpk, read-out: Area under the curve AUC(0-∞)
QUANTITY: AUC(0-inf) (ng·h/mL)
The answer is to be given in ng·h/mL; state only the numeric part.

The compound identified as `Cc1cc(CN2C(=O)CN(c3ccc(C(F)(F)F)cc3)C2=O)cc(C)c1OC(C)(C)C(=O)O` registered its AUC(0-inf) at 22300

* * *

MEASURED ON: PPARγ (Homo sapiens, UniProt P37231)
Construct: expressed in transfected cells; host or cells: COS-7
Sequence (P37231 238-503 limits assumed): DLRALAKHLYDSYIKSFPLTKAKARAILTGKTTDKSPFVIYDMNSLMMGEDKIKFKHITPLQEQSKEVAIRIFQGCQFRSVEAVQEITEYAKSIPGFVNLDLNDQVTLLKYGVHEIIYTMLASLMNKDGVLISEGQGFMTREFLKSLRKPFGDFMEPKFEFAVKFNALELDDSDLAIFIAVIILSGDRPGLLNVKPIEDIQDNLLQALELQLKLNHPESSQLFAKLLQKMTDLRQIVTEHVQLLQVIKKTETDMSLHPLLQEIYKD
ASSAY NOTES: GAL4 hybrid reporter gene method, PPARγ agonistic activity
Assay type: cell-based
pEC50: −log10 of the molar value.
QUANTITY: pEC50

Examples with answers:
1. COc1cc(CN2C(=O)CN(c3ccc(C(F)(F)F)cc3)C2=O)cc(Cl)c1OC(C)(C)C(=O)O | 5.67
2. CC(C)(Oc1ccc(CN2C(=O)CN(c3ccc(C(F)(F)F)cc3)C2=O)cc1OC(F)(F)F)C(=O)O | 5.53
3. Cc1cc(CCCN2CC(=O)N(c3ccc(C(F)(F)F)cc3)C2=O)cc(C)c1OC(C)(C)C(=O)O | 5.57
4. COc1cc(CN2C(=O)CN(c3ccc(C(F)(F)F)cc3)C2=O)ccc1OC(C)(C)C(=O)O | 5.54
5. CC(C)(Oc1ccc(CN2C(=O)CN(c3ccc(C(F)(F)F)cc3)C2=O)cc1C(F)(F)F)C(=O)O | 5.60
6. Cc1cc(CCN2C(=O)CN(c3ccc(C(F)(F)F)cc3)C2=O)cc(C)c1OC(C)(C)C(=O)O | 5.57

[1] Cc1cc(CCN2CC(=O)N(c3ccc(C(F)(F)F)cc3)C2=O)cc(C)c1OC(C)(C)C(=O)O
[2] CCC(Oc1c(C)cc(CN2C(=O)CN(c3ccc(C(F)(F)F)cc3)C2=O)cc1C)C(=O)O (stereo not drawn)
[3] Cc1cc(CN2C(=O)CN(c3ccc(F)c(Cl)c3)C2=O)cc(C)c1OC(C)(C)C(=O)O
[4] Cc1cc(CN2C(=O)CN(c3ccc(C4CC4)cc3)C2=O)cc(C)c1OC(C)(C)C(=O)O
Exercise: Order the entries by their reported pEC50, beginning at the minimum. // format: requested-order list of labels
Key: 1, 2, 4, 3

* * *

MEASURED ON: PPARγ (Homo sapiens)
Construct: expressed in transfected cells; host or cells: COS-7
ASSAY NOTES: GAL4 hybrid reporter gene method, PPARγ agonistic activity
Assay type: cell-based
CONDITION DETAILS: Cos-7 cells, Gal4-PPARγ (LBD); Rosiglitazone 1 μM = 100%; 16 h
QUANTITY: EC50 (nM)

Examples with answers:
1) Cc1cc(CN2C(=O)CN(c3ccc(C(F)(F)F)c(Cl)c3)C2=O)cc(C)c1OC(C)(C)C(=O)O | 657
2) Cc1cc(CN2C(=O)CN(c3ccc(Cl)cc3)C2=O)cc(C)c1OC(C)(C)C(=O)O | 1420

[a] Cc1ccc(N2CC(=O)N(Cc3cc(C)c(OC(C)(C)C(=O)O)c(C)c3)C2=O)cc1
[b] Cc1cc(CN2C(=O)CN(c3ccc(C(F)(F)F)cc3)C2=O)ccc1OC(C)(C)C(=O)O
Exercise: Recorded EC50 values differ for a and b ; which one is higher? Write the label of whichever entry you select.
Key: b

* * *

MEASURED ON: UniProt:Q07869
ASSAY NOTES: GAL4 hybrid reporter gene method, PPARα agonistic activity
CONDITION DETAILS: Cos-7 cells, Gal4-PPARα (LBD); GW7647 10 nM = 100%; 16 h
pEC50: −log10 of the molar value.
QUANTITY: pEC50

[1] CC(C)(Oc1ccc(CN2C(=O)CN(c3ccc(C(F)(F)F)cc3)C2=O)cc1C(F)(F)F)C(=O)O [Compound 11]
[2] Cc1cc(CN2C(=O)CN(c3ccc(Br)cc3)C2=O)cc(C)c1OC(C)(C)C(=O)O [Compound 61]
[3] Cc1cc(CN2C(=O)CN(c3ccc(C(F)(F)F)cc3)C2=O)ccc1OC(C)(C)C(=O)O [Compound 57]
[4] Cc1cc(CN2C(=O)N(c3ccc(OC(F)(F)F)cc3)C(C)(C)C2=O)cc(C)c1OC(C)(C)C(=O)O [Compound 7]
[5] Cc1cc(CN2C(=O)CN(c3ccc(C(F)(F)F)cc3)C2=O)cc(Cl)c1OC(C)(C)C(=O)O [Compound 13]
Exercise: Can you order these entries from above by pEC50? Start with the largest number and work down. // format: requested-order list of labels
Key: 5, 2, 3, 1, 4

[A] Cc1cc(CN2C(=O)CN(c3cccc(Cl)c3)C2=O)cc(C)c1OC(C)(C)C(=O)O [Compound 107]
[B] Cc1cc(CN2CC(=O)N(c3ccc(C(F)(F)F)cc3)C2=O)cc(C)c1OC(C)(C)C(=O)O [Compound 81]
Exercise: Please let me know which one, A or B , has a lower measured pEC50 value. Write the label of whichever entry you select.
Key: B

[A] CC(C)(Oc1c(F)cc(CN2C(=O)CN(c3ccc(C(F)(F)F)cc3)C2=O)cc1Cl)C(=O)O [Compound 47]
[B] Cc1cc(CN2C(=O)CN(c3ccc(S(C)(=O)=O)cc3)C2=O)cc(C)c1OC(C)(C)C(=O)O [Compound 71]
[C] Cc1cc(CN2C(=O)CN(c3ccc(C(F)(F)F)c(F)c3)C2=O)cc(C)c1OC(C)(C)C(=O)O [Compound 31]
Exercise: Order the entries by their reported pEC50, beginning at the minimum. // format: requested-order list of labels
Key: B, A, C
(B: 5.96, A: 8.00, C: 8.68)

[1] Cc1cc(CN2C(=O)CN(c3cccc(OC(F)(F)F)c3)C2=O)cc(C)c1OC(C)(C)C(=O)O [Compound 109]
[2] Cc1cc(CN2C(=O)CN(c3ccc(C(F)(F)F)c(Cl)c3)C2=O)cc(C)c1OC(C)(C)C(=O)O [Compound 33]
[3] Cc1cc(CN2C(=O)CN(c3ccc(C(F)(F)F)cc3)C2=O)cc(C)c1OCC(=O)O [Compound 53]
[4] COc1ccc(N2CC(=O)N(Cc3cc(C)c(OC(C)(C)C(=O)O)c(C)c3)C2=O)cc1 [Compound 39]
Exercise: Order the entries by their reported pEC50, beginning at the minimum. // format: requested-order list of labels
Key: 3, 1, 4, 2
(3: 6.49, 1: 7.50, 4: 7.73, 2: 9.00)

[1] Cc1cc(CN2C(=O)CN(c3ccc(C4CC4)cc3)C2=O)cc(C)c1OC(C)(C)C(=O)O [Compound 101]
[2] Cc1cc(CN2C(=O)CN(c3ccc(F)cc3)C2=O)cc(C)c1OC(C)(C)C(=O)O [Compound 25]
[3] CC(C)(Oc1ccc(CN2C(=O)CN(c3ccc(C(F)(F)F)cc3)C2=O)cc1)C(=O)O [Compound 59]
[4] Cc1ccc(N2CC(=O)N(Cc3cc(C)c(OC(C)(C)C(=O)O)c(C)c3)C2=O)cc1 [Compound 23]
[5] CC(C)(Oc1c(Br)cc(CN2C(=O)CN(c3ccc(C(F)(F)F)cc3)C2=O)cc1Br)C(=O)O [Compound 19]
Exercise: Order the entries by their reported pEC50, beginning at the minimum. // format: requested-order list of labels
Key: 3, 2, 4, 5, 1
(3: 6.56, 2: 7.00, 4: 7.58, 5: 8.66, 1: 9.00)

[1] Cc1cc(CN2C(=O)CN(c3cccc(F)c3)C2=O)cc(C)c1OC(C)(C)C(=O)O [Compound 103]
[2] COc1cc(CN2C(=O)CN(c3ccc(C(F)(F)F)cc3)C2=O)ccc1OC(C)(C)C(=O)O [Compound 97]
Exercise: Please let me know which one, 1 or 2 , has a lower measured pEC50 value. Write the label of whichever entry you select.
Key: 2
(2: 6.68, 1: 6.99)

[A] Cc1cc(CN2C(=O)CN(c3ccc(C(F)(F)F)cc3)C2=O)cc(C)c1OC(C)(C)C(=O)O [Compound 1]
[B] Cc1cc(CN2C(=O)N(c3ccc(C(F)(F)F)cc3)C(=O)C2(C)C)cc(C)c1OC(C)(C)C(=O)O [Compound 83]
[C] Cc1cc(CN2C(=O)N(c3ccc(C(F)(F)F)cc3)C(C)(C)C2=O)cc(C)c1OC(C)(C)C(=O)O [Compound 5]
Exercise: Could you please sort these 3 entries by pEC50 from high to low? // format: requested-order list of labels
Key: A, B, C
(A: 9.15, B: 7.10, C: 6.60)

[1] CC(C)(Oc1ccc(CN2C(=O)CN(c3ccc(C(F)(F)F)cc3)C2=O)cc1OC(F)(F)F)C(=O)O [Compound 55]
[2] CCc1ccc(N2CC(=O)N(Cc3cc(C)c(OC(C)(C)C(=O)O)c(C)c3)C2=O)cc1 [Compound 75]
Exercise: Please let me know which one, 1 or 2 , has a lower measured pEC50 value. Write the label of whichever entry you select.
Key: 1
